target: FMDV 3Dpol (Foot-and-mouth disease virus, UniProt P03311); assay: biochemical
Sequence (P03311 1858-2327 limits assumed): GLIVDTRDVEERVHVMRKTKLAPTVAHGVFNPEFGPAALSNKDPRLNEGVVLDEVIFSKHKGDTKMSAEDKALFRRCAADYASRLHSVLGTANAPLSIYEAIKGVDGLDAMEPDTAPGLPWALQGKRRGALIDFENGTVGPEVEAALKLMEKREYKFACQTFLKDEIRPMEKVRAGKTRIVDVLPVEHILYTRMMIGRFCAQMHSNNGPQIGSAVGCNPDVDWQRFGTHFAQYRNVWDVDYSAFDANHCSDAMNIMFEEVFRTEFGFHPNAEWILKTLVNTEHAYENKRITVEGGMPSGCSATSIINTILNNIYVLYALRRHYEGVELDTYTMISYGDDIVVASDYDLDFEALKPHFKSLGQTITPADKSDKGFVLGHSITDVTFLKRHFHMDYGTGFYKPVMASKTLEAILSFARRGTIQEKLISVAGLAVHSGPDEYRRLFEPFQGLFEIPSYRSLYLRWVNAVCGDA
property.measured: IC50
Reply with a number, then the unit it belongs to.

Look up FMDV 3Dpol (Foot-and-mouth disease virus, UniProt P03311) data: IC50 of Cc1cn([C@@H]2O[C@H](COP(=O)(O)OP(=O)(O)OP(=O)(O)O)C[C@H]2O)c(=O)[nH]c1=O [DMUT, 3′-deoxy-5-methyl uridine triphosphate] , then report it.
0.68 µM

----------
molecular target: UniProt P03311
property.measured: IC50 (µM)
Just the number please, in µM, no unit attached.

Write down the reported IC50 (system: UniProt P03311) of O=C1C(Cl)=C(Sc2ccccc2Br)C(=O)c2ccccc21 [8C5]
5.4
